All values here come from PubChem BioAssay.

biological target: Short transient receptor potential channel 4 (Mus musculus); experiment: calcium flux activators in TRPC4/5HT1a cells, counter-screen for TRPC4 activator project, cell-based, second counter screen, HEK293 TRPC4/5HT1a, Fluo-4 (AID 434977); settings: Fluo-4 calcium flux, at 10 µM
Activity calls are given as the source filed them.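 The calls were made as follows: active = calcium signal rise above buffer-control mean plus 5 SD in both duplicates, and also a hit in the primary screen; inactive = the rest.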
Outcome codes: active, inactive

molecule: Cc1cc(OCCNCCO)cc(C)c1Cl
subject.of.test: Short transient receptor potential channel 4 (Mus musculus)
assigned.label: active
--
molecule: Cc1ccccc1OCC(O)Cn1c(=N)n(Cc2ccccc2)c2ccccc21 (configuration not stated)
subject.of.test: Short transient receptor potential channel 4 (Mus musculus)
assigned.label: active
--
molecule: CCn1c(N2CCN(C(=O)Nc3ccc(F)cc3)CC2)nc2ccccc21
subject.of.test: Short transient receptor potential channel 4 (Mus musculus)
assigned.label: active
--
molecule: COc1ccc(C(=O)NC(=S)NNC(=O)CCc2ccccc2)cc1
subject.of.test: Short transient receptor potential channel 4 (Mus musculus)
assigned.label: active
--
molecule: CCN(c1ccccc1)S(=O)(=O)c1ccc(C(=O)N(CCCN(C)C)c2nc3cc4c(cc3s2)OCO4)cc1
subject.of.test: Short transient receptor potential channel 4 (Mus musculus)
assigned.label: inactive
--
molecule: CN(C)C(CNC(=O)CCc1c[nH]c2ccccc12)c1ccccc1 (configuration not stated)
subject.of.test: Short transient receptor potential channel 4 (Mus musculus)
assigned.label: inactive
--
molecule: Cc1ccc(S(=O)(=O)Nc2cccc(C(=O)NCC(c3ccccc3)N(C)C)c2)cc1F (configuration not stated)
subject.of.test: Short transient receptor potential channel 4 (Mus musculus)
assigned.label: inactive
--
molecule: COc1ccc(C(CNCC(=O)Nc2ccccc2F)N(C)C)cc1 (configuration not stated)
subject.of.test: Short transient receptor potential channel 4 (Mus musculus)
assigned.label: inactive
--
molecule: COc1ccc(-c2nn(-c3ccccc3)cc2CNCc2cccnc2)c(F)c1
subject.of.test: Short transient receptor potential channel 4 (Mus musculus)
assigned.label: inactive
--
molecule: Cc1occc1C(=O)NNC(=S)NC(=O)COc1ccc(Cl)cc1Cl
subject.of.test: Short transient receptor potential channel 4 (Mus musculus)
assigned.label: active
--
molecule: CN(C)C(CNC(=O)C1CCN(S(=O)(=O)c2cccc(C(F)(F)F)c2)CC1)c1ccccc1 (configuration not stated)
subject.of.test: Short transient receptor potential channel 4 (Mus musculus)
assigned.label: inactive
--
molecule: CN(C)CCCN(C(=O)c1ccc(S(=O)(=O)N2CCOCC2)cc1)c1nc2ccc(F)cc2s1
subject.of.test: Short transient receptor potential channel 4 (Mus musculus)
assigned.label: inactive
--
molecule: O=C(C1CCCN(Cc2ccccc2)C1)N1CCc2ccccc2C1 (configuration not stated)
subject.of.test: Short transient receptor potential channel 4 (Mus musculus)
assigned.label: active
--
molecule: CCCc1ccc(OCC(=O)NNC(=S)NC(=O)c2ccco2)cc1
subject.of.test: Short transient receptor potential channel 4 (Mus musculus)
assigned.label: active
--
molecule: CNC[C@H](CC1CCCCC1)NC[C@H](Cc1ccccc1)NCCC12CC3CC(CC(C3)C1)C2
subject.of.test: Short transient receptor potential channel 4 (Mus musculus)
assigned.label: active
--
molecule: CN(C)C(CNC(=O)/C=C/c1cccc(Cl)c1)c1ccccc1 (configuration not stated)
subject.of.test: Short transient receptor potential channel 4 (Mus musculus)
assigned.label: inactive
--
molecule: COc1cc(OC)cc(C(=O)NCCCN2CCN(CCCNC(=O)c3cc(OC)cc(OC)c3)CC2)c1
subject.of.test: Short transient receptor potential channel 4 (Mus musculus)
assigned.label: active
--
molecule: CCN1CCN(c2ccc(S(=O)(=O)N3CCOCC3)cc2NC(=O)C(C)Oc2cccc(Cl)c2)CC1 (configuration not stated)
subject.of.test: Short transient receptor potential channel 4 (Mus musculus)
assigned.label: active
--
molecule: CCOC(=O)C1(CCOc2ccccc2)CCN(Cc2ccc3c(c2)OCCO3)CC1
subject.of.test: Short transient receptor potential channel 4 (Mus musculus)
assigned.label: inactive
--
molecule: C=CCn1c(CCNC(=O)c2ccco2)nc2ccccc21
subject.of.test: Short transient receptor potential channel 4 (Mus musculus)
assigned.label: active
--
molecule: CCOC(=O)C1(CCc2ccccc2)CCN(Cc2c(O)cccc2OC)CC1
subject.of.test: Short transient receptor potential channel 4 (Mus musculus)
assigned.label: inactive
--
molecule: COc1ccc(C(CCNCc2ccc(N(C)C)cc2)c2ccccc2OC)cc1 (configuration not stated)
subject.of.test: Short transient receptor potential channel 4 (Mus musculus)
assigned.label: active
--
molecule: Cc1onc(-c2ccccc2)c1C(=O)NNC(=S)NC(=O)c1ccc(F)cc1
subject.of.test: Short transient receptor potential channel 4 (Mus musculus)
assigned.label: active
--
molecule: COC(=O)c1ccc(N2CCN(C)CC2)c(NC(=O)COc2ccccc2)c1
subject.of.test: Short transient receptor potential channel 4 (Mus musculus)
assigned.label: active
--
molecule: Cc1ccc2oc(=O)c3cnn(CC(=O)NC4CCN(Cc5ccccc5)CC4)c3c2c1
subject.of.test: Short transient receptor potential channel 4 (Mus musculus)
assigned.label: inactive
--
molecule: Cc1cccc2cc(C(c3nnnn3Cc3ccccc3)N3CCN(C)CC3)c(=O)[nH]c12 (configuration not stated)
subject.of.test: Short transient receptor potential channel 4 (Mus musculus)
assigned.label: inactive
--
molecule: CCOc1ccccc1OCC(=O)Nc1cc(S(=O)(=O)N2CCCCC2)ccc1N1CCN(CC)CC1
subject.of.test: Short transient receptor potential channel 4 (Mus musculus)
assigned.label: active
--
molecule: Cc1c(CN2CCC(n3nccc3NC(=O)C3CC3)CC2)[nH]c2ccccc12
subject.of.test: Short transient receptor potential channel 4 (Mus musculus)
assigned.label: inactive
--
molecule: CN(C)CCCN(C(=O)c1ccc(S(=O)(=O)N(C)C2CCCCC2)cc1)c1nc2ccc(F)cc2s1
subject.of.test: Short transient receptor potential channel 4 (Mus musculus)
assigned.label: active
--
molecule: CCCN(CCC)CCCNc1ccc2nnc(-c3ccc(F)cc3)n2n1
subject.of.test: Short transient receptor potential channel 4 (Mus musculus)
assigned.label: active
--
molecule: COc1cc(OC)c(CN2CCC(Cc3ccccc3)CC2)cc1Br
subject.of.test: Short transient receptor potential channel 4 (Mus musculus)
assigned.label: active
--
molecule: O=C(NCCc1cccc(Cl)c1)c1ccc(OC2CCN(Cc3ccccn3)CC2)cc1
subject.of.test: Short transient receptor potential channel 4 (Mus musculus)
assigned.label: inactive
--
molecule: O=C(CNS(=O)(=O)c1ccc2ccccc2c1)NCCc1ccccn1
subject.of.test: Short transient receptor potential channel 4 (Mus musculus)
assigned.label: inactive
--
molecule: Cc1ccc(/C=N\NC(=O)C2COc3cc4ccccc4cc3O2)o1 (configuration not stated)
subject.of.test: Short transient receptor potential channel 4 (Mus musculus)
assigned.label: active
--
molecule: Fc1ccc(C(c2nnnn2Cc2cccs2)N2CCN(C3CCCCC3)CC2)cc1 (configuration not stated)
subject.of.test: Short transient receptor potential channel 4 (Mus musculus)
assigned.label: active
--
molecule: Cc1cccc(NC(=S)NCC(c2cccnc2)N(C)C)c1 (configuration not stated)
subject.of.test: Short transient receptor potential channel 4 (Mus musculus)
assigned.label: inactive
--
molecule: CN(C)/C=C1\C(=O)N(c2ccc([N+](=O)[O-])cc2)N=C1c1ccccc1
subject.of.test: Short transient receptor potential channel 4 (Mus musculus)
assigned.label: active
--
molecule: CN(C)C(CNC(=S)Nc1cccc(Cl)c1)c1cccnc1 (configuration not stated)
subject.of.test: Short transient receptor potential channel 4 (Mus musculus)
assigned.label: inactive
--
molecule: O=C(CCC1CCCC1)c1c(O)c2ccccc2oc1=O
subject.of.test: Short transient receptor potential channel 4 (Mus musculus)
assigned.label: active
--
molecule: O=C(Cn1c(-c2ccccc2)c[n+]2ccsc12)c1ccc(Br)cc1
subject.of.test: Short transient receptor potential channel 4 (Mus musculus)
assigned.label: inactive
--
molecule: CCOc1ccc2ncc(C(=O)c3ccc(OC)cc3)c(N3CCN(CC)CC3)c2c1
subject.of.test: Short transient receptor potential channel 4 (Mus musculus)
assigned.label: inactive
--
molecule: Cn1c(O)c(/C=N/NC(=O)c2cc3ccccc3cc2O)c2ccccc21
subject.of.test: Short transient receptor potential channel 4 (Mus musculus)
assigned.label: active

====

assay: thallium flux activation in parental CHO cells, counter-screen for KCNQ1 potentiator project (AID 493006); conditions: parental CHO-K1 cells, FluxOR thallium flux, at 10 µM;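 as to activation: fluorescence ratio of max minus min over baseline after K+ and Tl+ depolarization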
The source made the active and inactive calls.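 The calls were made as follows: active = duplicate-averaged activation above buffer control mean plus 5 SD of those controls; inactive = the rest.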
Classes used: active, inactive

compound: COc1ccccc1N1C(=NC(=O)C(C)Oc2ccccc2)SC2CS(=O)(=O)CC21 (stereo not given)
assigned.label: inactive
--
compound: COCC(=O)NC1CC2CCC(C1)N2C(=S)Nc1ccccc1C(=O)OC (stereo not given)
assigned.label: inactive
--
compound: O=C1Nc2cc(C(=O)NCCCN3CCOCC3)ccc2S/C1=C/c1cccc(Cl)c1
assigned.label: inactive
--
compound: CN1CCN(C(c2ccc(Cl)cc2)c2cc(Cl)c3cccnc3c2O)CC1 (stereo not given)
assigned.label: inactive
--
compound: O=C(NC(=S)N1CCCC(C(F)(F)F)C1)c1ccc(F)cc1 (stereo not given)
assigned.label: active
